- test system: Gag-Pol polyprotein (Human immunodeficiency virus type 1 group M subtype B (isolate HXB2)) (UniProt P04585)
- procedure summary: RNase H inhibition, HIV 1 Gag Pol polyprotein, FRET biochemical assay, screening (AID 372)
- applied conditions: HIV-1 RT RNase H, FRET RNA/DNA substrate fluorescence; at 10 µM
The whole screen tested about 100,000 compounds, of which about 770 (0.77%) were called active. Rule as the data show it: active = inhibition above about 50%; inactive = the rest. Only a selection was taken, and actives are over-represented in it overall.
One label from this list, please: label 1 (active), label 0 (inactive)

Below, 4 compounds whose answers are already recorded.
COc1ccccc1NC(=O)Nc1nnc(-c2ccccc2SCc2ccc(F)cc2)s1 :: label 0
CC(NC(=O)CSc1nnc(-c2cccc(F)c2)n1-c1ccccc1)c1ccccc1 (stereo not given) :: label 0
O=C1c2ccccc2NC(c2ccccc2O)N1Cc1ccco1 (stereo not given) :: label 0
CCOc1ccc(C(=O)NC(=S)Nc2ccc3oc(-c4ccc(C)cc4)nc3c2)cc1Cl :: label 0

# lookup: test call for `C=CCn1c(=O)c(C(=O)NCCCO)c(O)c2ccccc21`
label 0
